target-desc: UniProtKB Q59961
procedure-summary: S. pneumoniae Topoisomerase IV ATPase inhibition
Format: biochemical
setup-conditions: values marked * are an average of two or more data points, read-out: % Inh (13 μM) of S. pneumoniae Topoisomerase IV ATPase
outcome-measure: inhibition at 13 µM (%)
A number alone suffices; assume %.

compound | reported-result
COc1cc(Nc2ncc(-c3cnc(OC)c(-c4noc(=S)[nH]4)c3)c(-n3nc(C(F)(F)F)cc3C)n2)cc(OC)c1 [Example 974] | 89
COc1cc(Nc2ncc(-c3cncc(C(=O)NS(C)(=O)=O)c3)c(-n3ccc(C(F)(F)F)n3)n2)cc(OC)c1 [Example 686] | 100
O=C(O)c1cncc(-c2cnc(Nc3ccc(F)c(Cl)c3)nc2NCCCN2CCS(=O)(=O)CC2)c1 [Example 232] | 81

Enquiry: # lookup: inhibition at 13 µM of CONC(=O)c1cncc(-c2cnc(Nc3ccc(F)c(Cl)c3)nc2-n2cc(-c3ccccn3)cn2)c1 [Example 550]
Return: 100

###

Below is a list of entries, each paired with its recorded inhibition at 13 µM value.
target-desc: S. pneumoniae Topoisomerase IV ATPase (ParE) (Streptococcus pneumoniae serotype 4)
Sequence (Q59961 whole entry): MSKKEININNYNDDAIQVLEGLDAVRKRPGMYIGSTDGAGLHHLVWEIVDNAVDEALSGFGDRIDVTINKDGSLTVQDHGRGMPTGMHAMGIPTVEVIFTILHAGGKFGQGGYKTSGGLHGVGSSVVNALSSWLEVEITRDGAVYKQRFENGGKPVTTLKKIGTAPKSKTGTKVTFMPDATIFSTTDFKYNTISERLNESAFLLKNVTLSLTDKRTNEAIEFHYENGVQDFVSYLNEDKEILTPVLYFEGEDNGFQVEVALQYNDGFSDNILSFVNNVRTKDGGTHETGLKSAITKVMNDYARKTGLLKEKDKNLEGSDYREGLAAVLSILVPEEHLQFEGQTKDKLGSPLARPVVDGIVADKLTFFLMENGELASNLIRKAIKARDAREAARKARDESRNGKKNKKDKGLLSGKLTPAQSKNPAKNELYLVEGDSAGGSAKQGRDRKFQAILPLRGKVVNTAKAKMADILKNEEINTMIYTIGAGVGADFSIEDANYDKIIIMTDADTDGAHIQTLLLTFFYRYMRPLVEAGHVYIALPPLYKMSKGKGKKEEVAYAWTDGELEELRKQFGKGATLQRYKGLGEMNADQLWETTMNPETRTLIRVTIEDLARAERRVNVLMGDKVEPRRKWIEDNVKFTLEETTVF
procedure-summary: S. pneumoniae Topoisomerase IV ATPase inhibition
Type: biochemical
setup-conditions: values marked * are an average of two or more data points, read-out: % Inh (13 μM) of S. pneumoniae Topoisomerase IV ATPase
A number alone suffices; assume %.

compound | value-unit | inhibition at 13 µM
CC(C)(C)OC(=O)NCCNc1nc(Nc2ccc(F)c(Cl)c2)ncc1-c1cncc(C(=O)O)c1 [Example 225] | % | 81.1

Enquiry: # lookup: inhibition at 13 µM of CCOC(=O)c1cncc(-c2cnc(Nc3ccc(F)c(Cl)c3)nc2NC(COC)COC)c1 [Example 149]
Return: 82.2

Enquiry: # lookup: inhibition at 13 µM of COc1cc(Nc2ncc(-c3cncnc3)c(NCCCN(C)C)n2)cc(OC)c1 [Example 344]
Return: 82

Enquiry: # lookup: inhibition at 13 µM of Cc1noc(CCNC(=O)c2cncc(-c3cnc(Nc4ccc(F)c(Cl)c4)nc3-n3nc(C(F)(F)F)cc3C)c2)n1 [Example 929]
Return: 82

Enquiry: # lookup: inhibition at 13 µM of O=C(O)c1cncc(-c2cnc(Nc3ccc(F)c(Cl)c3)nc2NCc2ccncc2)c1 [Example 224]
Return: 78.5

Enquiry: # lookup: inhibition at 13 µM of COC(=O)c1cccc(-c2cnc(Nc3ccc(F)c(Cl)c3)nc2NCCCN(C)C)c1 [Example 2]
Return: 77.8

###

target-desc: UniProtKB Q59961
procedure-summary: S. pneumoniae Topoisomerase IV ATPase inhibition
Format: biochemical
setup-conditions: values marked * are an average of two or more data points, read-out: % Inh (13 μM) of S. pneumoniae Topoisomerase IV ATPase
Is inhibition at 13 µM at least 80%? Then y. If not, n.

Before answering, review these 5 worked examples.
chemical-string | class-label
O=C(O)/C=C/c1cccc(-c2cnc(Nc3ccc(F)c(Cl)c3)cc2N2CCOCC2)c1 | y
CCOC(=O)/C=C/c1cccc(-c2cnc(Nc3ccc(F)c(Cl)c3)nc2N2CCN(S(C)(=O)=O)CC2)c1 | n
COc1cc(Nc2ncc(-c3cnc(OC)c(C(=O)NS(=O)(=O)c4sc(NC(C)=O)nc4C)c3)c(-n3nc(C(F)(F)F)cc3C)n2)cc(OC)c1 | y
CCOC(=O)c1cncc(-c2cnc(Nc3ccc(F)c(Cl)c3)nc2N2CCC(O)CC2)c1 | n
COc1cc(Nc2ncc(-c3cnc(OC)c(-c4n[nH]c(=O)o4)c3)c(-n3ccc(C(F)(F)F)n3)n2)cc(OC)c1 | y

Enquiry: Reported inhibition at 13 µM reaches at least 80% for O=C(O)c1cncc(-c2cnc(Nc3ccc(F)c(Cl)c3)nc2N2CCC(O)CC2)c1 ?
Return: n

Enquiry: Reported inhibition at 13 µM reaches at least 80% for COc1cc(Nc2ncc(-c3cccc(/C=C/C(=O)O)c3)c(-n3nc(C(F)(F)F)cc3C)n2)cc(S(C)(=O)=O)c1 ?
Return: y

Enquiry: Reported inhibition at 13 µM reaches at least 80% for CS(=O)(=O)CCn1cc(-c2cnc(Nc3ccc(F)c(Cl)c3)nc2-n2ccc(C(F)(F)F)n2)cc(C(=O)O)c1=O ?
Return: y
